# tgt: 5α-reductase type 1 (Homo sapiens, UniProt P18405)
# Construct: Samples of human tissue were pulverized using a freezer mill and homogenized; from tissue; host or cells: human scalp tissue, crude nuclear pellet
# Sequence (P18405 1-259): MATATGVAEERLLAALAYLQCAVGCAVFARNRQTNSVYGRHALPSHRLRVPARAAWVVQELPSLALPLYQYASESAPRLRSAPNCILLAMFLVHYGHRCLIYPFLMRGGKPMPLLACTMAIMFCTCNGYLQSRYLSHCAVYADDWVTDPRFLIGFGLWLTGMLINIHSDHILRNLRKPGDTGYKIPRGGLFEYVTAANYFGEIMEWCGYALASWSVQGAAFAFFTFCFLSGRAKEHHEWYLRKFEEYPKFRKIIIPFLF
# assay.overview: Inhibition of 5α-reductase type 1 (conversion of testosterone to DHT, human scalp homogenate)
# Assay type: biochemical
pIC50: −log10 of the molar value.

- molecule: "CN1C[C@H]2[C@@H]3CC[C@H](O)[C@@]3(C)CC[C@@H]2[C@@]2(C)CCC(=O)C=C12 [XIII]"
  pIC50: "> 7.00"
